Data provenance: paper PMC8223195

# Test system: hCoV-229E
# Assay type: cell-based, human corona virus 229E
# TEST PARAMETERS: […]; (*) mean of three independent experiments ± SEM
METRIC NAME: pEC50
Please note pEC50 is a logarithmic value: minus log10 of concentration in mol/L. Answer with that number alone.

May I ask what pEC50 has been recorded for Cc1ccc(C(=O)C2Sc3nnc(-n4nc(C)cc4C)n3NC2c2ccc(C)cc2)cc1 (racemic) ?
5.33

Look up pEC50: Cc1cc(C)n(-c2nnc3n2NC(c2ccc([N+](=O)[O-])cc2)C(C(=O)c2ccc([N+](=O)[O-])cc2)S3)n1 (racemic)
4.61

Given Cc1ccc(C(=O)C2Sc3nnc(-n4nc(C)cc4C)n3NC2c2ccccc2Br)cc1 (racemic) , state its recorded pEC50.
5.49

Entry COc1cc(C2Nn3c(nnc3-n3nc(C)cc3C)SC2C(=O)c2ccccc2)cc(OC)c1OC (racemic) : reported pEC50 = ?
4.02
